# Test system: MDA-MB-435
Outcome field: choose from t = active, f = inactive

Reference set (4 entries):
>>> classification("CN1CCN(c2nc(NCCCCNc3ccnc4cc(Cl)ccc34)c3ccccc3n2)CC1")
"f"
>>> classification("CCN(CCNc1ccc(C)c2sc3cc(Cl)ccc3c(=O)c12)CC(C)O (stereo not given)")
"f"
>>> classification("COC(=O)c1cc(-c2cc(OC)c(OC)c(OC)c2)[nH]c1N/N=C/c1c(Cl)cccc1Cl")
"t"
>>> classification("COc1ccc(-c2nnc(SCC(=O)Nc3ccc(/C(C)=N\\O)cc3)n2-c2ccccc2)cc1OC")
"f"

Consider now this further compound.
Record request — test call for `O=C1/C(=C/c2ccc([N+](=O)[O-])o2)Oc2ccc(Br)cc21`
f
